biological target: T1, rHuman CD44/Fc Chimera, CF (R&D Systems Cat#3660-CD) (human, UniProt P16070 21-220); assay: ECL multispot (MSD) binding assay, antigen spotted on plate;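 further: purified Fab incubated 1 h at 20 °C on antigen spots, detected with TAG-labelled antibody, electrochemiluminescence compared with each well's blank, signal-to-blank ratio ≥4 counted as hit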
T1 construct: Bought recombinant protein
parameter: ECL signal
Number only, no unit.

Consider the reported ECL signal for these binders:
# binder, measValue
rows = [
    ("Fab VH1-46_IGHD6-6*01_IGHJ1*01 S102A/S103P/S104F/H111F (APFF) & L6_IGKJ1*01 S31A (Fab, V domains shown, Tested as Fab (CH1 with His6/Flag tags, kappa CL) made in E. coli; also called APFF / S31A) VH: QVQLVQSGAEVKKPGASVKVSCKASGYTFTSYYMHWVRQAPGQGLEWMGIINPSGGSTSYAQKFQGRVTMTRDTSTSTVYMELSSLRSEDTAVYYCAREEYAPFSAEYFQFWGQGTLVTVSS VL: EIVLTQSPATLSLSPGERATLSCRASQSVSAYLAWYQQKPGQAPRLLIYDASNRATGIPARFSGSGSGTDFTLTISSLEPEDFAVYYCQQRSNWPPWTFGQGTKVEIKR", 406),
    ("Fab VH1-46_IGHD6-6*01_IGHJ1*01 S102A/S103P/S104F/H111F (APFF) & L6_IGKJ1*01 S31M (Fab, V domains shown, Tested as Fab (CH1 with His6/Flag tags, kappa CL) made in E. coli; also called APFF / S31M) VH: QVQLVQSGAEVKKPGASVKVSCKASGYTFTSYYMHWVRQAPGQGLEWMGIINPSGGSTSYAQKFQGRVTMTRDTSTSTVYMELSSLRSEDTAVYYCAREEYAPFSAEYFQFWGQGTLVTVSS VL: EIVLTQSPATLSLSPGERATLSCRASQSVSMYLAWYQQKPGQAPRLLIYDASNRATGIPARFSGSGSGTDFTLTISSLEPEDFAVYYCQQRSNWPPWTFGQGTKVEIKR", 488),
]

In: State the recorded ECL signal for this entry: Fab VH1-46_IGHD6-6*01_IGHJ1*01 S102A/S103P/S104F/H111F (APFF) & L6_IGKJ1*01 S31F (Fab, V domains shown, Tested as Fab (CH1 with His6/Flag tags, kappa CL) made in E. coli; also called APFF / S31F) VH: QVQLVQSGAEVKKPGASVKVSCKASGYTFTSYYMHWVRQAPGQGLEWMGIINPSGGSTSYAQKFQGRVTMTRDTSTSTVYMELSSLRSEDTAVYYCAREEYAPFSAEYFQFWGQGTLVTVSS VL: EIVLTQSPATLSLSPGERATLSCRASQSVSFYLAWYQQKPGQAPRLLIYDASNRATGIPARFSGSGSGTDFTLTISSLEPEDFAVYYCQQRSNWPPWTFGQGTKVEIKR
Out: 256

In: State the recorded ECL signal for this entry: Fab VH1-46_IGHD6-6*01_IGHJ1*01 S102A/S103P/S104F/H111F (APFF) & L6_IGKJ1*01 S31P (Fab, V domains shown, Tested as Fab (CH1 with His6/Flag tags, kappa CL) made in E. coli; also called APFF / S31P) VH: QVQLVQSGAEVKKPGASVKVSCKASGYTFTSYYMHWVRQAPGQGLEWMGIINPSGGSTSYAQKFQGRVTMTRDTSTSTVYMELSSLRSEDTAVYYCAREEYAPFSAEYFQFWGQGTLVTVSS VL: EIVLTQSPATLSLSPGERATLSCRASQSVSPYLAWYQQKPGQAPRLLIYDASNRATGIPARFSGSGSGTDFTLTISSLEPEDFAVYYCQQRSNWPPWTFGQGTKVEIKR
Out: 466

In: State the recorded ECL signal for this entry: Fab VH1-46_IGHD6-6*01_IGHJ1*01 S102A/S103P/S104F/H111F (APFF) & L6_IGKJ1*01 S31L (Fab, V domains shown, Tested as Fab (CH1 with His6/Flag tags, kappa CL) made in E. coli; also called APFF / S31L) VH: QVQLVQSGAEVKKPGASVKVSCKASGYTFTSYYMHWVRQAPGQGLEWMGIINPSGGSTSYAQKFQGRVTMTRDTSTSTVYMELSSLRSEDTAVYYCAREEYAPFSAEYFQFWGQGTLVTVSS VL: EIVLTQSPATLSLSPGERATLSCRASQSVSLYLAWYQQKPGQAPRLLIYDASNRATGIPARFSGSGSGTDFTLTISSLEPEDFAVYYCQQRSNWPPWTFGQGTKVEIKR
Out: 371

In: State the recorded ECL signal for this entry: Fab VH1-46_IGHD6-6*01_IGHJ1*01 S102A/S103P/S104F/H111F (APFF) & L6_IGKJ1*01 S31I (Fab, V domains shown, Tested as Fab (CH1 with His6/Flag tags, kappa CL) made in E. coli; also called APFF / S31I) VH: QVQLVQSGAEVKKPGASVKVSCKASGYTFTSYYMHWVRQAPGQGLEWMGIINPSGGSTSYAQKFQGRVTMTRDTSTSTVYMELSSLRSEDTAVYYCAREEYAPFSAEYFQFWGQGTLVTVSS VL: EIVLTQSPATLSLSPGERATLSCRASQSVSIYLAWYQQKPGQAPRLLIYDASNRATGIPARFSGSGSGTDFTLTISSLEPEDFAVYYCQQRSNWPPWTFGQGTKVEIKR
Out: 506

In: State the recorded ECL signal for this entry: Fab VH1-46_IGHD6-6*01_IGHJ1*01 S102A/S103P/S104F/H111F (APFF) & L6_IGKJ1*01 S31V (Fab, V domains shown, Tested as Fab (CH1 with His6/Flag tags, kappa CL) made in E. coli; also called APFF / S31V) VH: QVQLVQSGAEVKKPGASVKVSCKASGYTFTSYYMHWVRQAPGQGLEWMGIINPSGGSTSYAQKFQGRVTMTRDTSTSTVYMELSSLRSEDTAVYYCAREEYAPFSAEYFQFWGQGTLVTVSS VL: EIVLTQSPATLSLSPGERATLSCRASQSVSVYLAWYQQKPGQAPRLLIYDASNRATGIPARFSGSGSGTDFTLTISSLEPEDFAVYYCQQRSNWPPWTFGQGTKVEIKR
Out: 384
